Data origin: PubChem BioAssay (NCATS)

# protocol summary: Cytometry Cell-Based qHTS for Inhibitors of the mTORC1 Signaling Pathway in MEF cells (AID 2668)
# test parameters: mTORC1 pathway readout; series mostly up to 38.3 µM
Records with an inconclusive call do not appear. Calls of active or inactive are those of the source. Calls come from the whole dose curve; as a rule, active = well fitted inhibition curve with a large enough effect; inconclusive = small, poorly fitted or top-dose-only effect; inactive = flat fitted curve, though single readings scatter.
Outcomes: active, inactive

Cc1cccc(C)c1OCC(N)C(C)C (stereo not drawn) = inactive
N=C(N)c1ccc(OCCCCCOc2ccc(C(=N)N)cc2)cc1 (tested in a mixture with another compound) = active
CN1Cc2sccc2C(c2ccc(O)c(O)c2)C1 (stereo not drawn) = inactive
COc1ccccc1N1CCN(CCCNc2c(C)c(=O)n(C)c(=O)n2C)CC1 = inactive
CCCCCCCCCCCCCCCCCCOC[C@H](COP(=O)([O-])OCC[N+](C)(C)C)OC = inactive
CCN1C(=O)C=CC1=O = inactive
COC(=O)C1=C(C)NC(C)=C([N+](=O)[O-])C1c1ccccc1C(F)(F)F (stereo not drawn) = inactive
CCCCCCCCCCCCCCSCC(=O)O = inactive
CC#CCOC(=O)c1c(C)nc2sc3c(c2c1N)CCC(O)C3 (stereo not drawn) = inactive
CC(=O)O[C@H]1CC2(C)[C@@H](C[C@@H](O)[C@H]3[C@@]4(C)CC[C@@H](O)[C@@H](C)[C@@H]4CC[C@@]32C)C1=C(CCC=C(C)C)C(=O)O (stereo partly drawn) = inactive
CNC(=O)c1cc2c(cn1)[nH]c1ccccc12 = inactive
COC(=O)C(C)(N)Cc1ccc(O)cc1 (stereo not drawn) = inactive
CCN(CC)CCOC(=O)c1cc(Cl)c(N)cc1OC = inactive
Cn1ccnc1 = inactive
COc1cc(/C=C(\C#N)C(=O)c2ccc(O)c(O)c2)cc(I)c1O = inactive
N#CC(C#N)=C(N)/C(C#N)=C/c1ccc(O)cc1 = inactive
CC(/C=C/c1cccc(Oc2ccc(F)cc2)c1)N(O)C(N)=O (stereo not drawn) = inactive
CCC(=O)N1CCN(C(=O)c2ccccc2)CC1 = inactive
Cc1nc(N=Nc2ccc(S(=O)(=O)O)cc2S(=O)(=O)O)c(COP(=O)(O)O)c(C=O)c1O = inactive
O=C(c1ccc2c(c1)OCCO2)N1CCCCC1 = inactive
COc1cc(N)c(Cl)cc1C(=O)OCCN1CCCCC1 = inactive
Nc1ncnc2c1nc(Sc1ccc(Cl)cc1)n2[C@H]1OC2COP(=O)(O)O[C@@H]2C1O (stereo partly drawn) = inactive
C[C@H](NC(=O)/C(C#N)=C/c1ccc(O)c(O)c1)c1ccccc1 = inactive

* * *

# target or system: D(1A) dopamine receptor (Homo sapiens) (UniProt P21728)
# Sequence (P21728 whole entry, looked up): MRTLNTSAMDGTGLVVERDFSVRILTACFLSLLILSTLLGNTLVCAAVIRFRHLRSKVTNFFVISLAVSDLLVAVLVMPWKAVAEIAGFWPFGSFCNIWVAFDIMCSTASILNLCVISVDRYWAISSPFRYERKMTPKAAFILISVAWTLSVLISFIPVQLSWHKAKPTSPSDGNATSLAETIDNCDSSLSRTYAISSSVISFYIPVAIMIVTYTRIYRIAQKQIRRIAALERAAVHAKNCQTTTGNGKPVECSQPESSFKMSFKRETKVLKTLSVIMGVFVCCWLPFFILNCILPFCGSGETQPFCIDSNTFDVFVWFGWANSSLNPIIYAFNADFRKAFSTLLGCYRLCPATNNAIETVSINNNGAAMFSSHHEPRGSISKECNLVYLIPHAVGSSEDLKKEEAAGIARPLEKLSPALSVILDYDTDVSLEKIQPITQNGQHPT
# protocol summary: HTS Assay for Allosteric Agonists of the Human D1 Dopamine Receptor: Primary Screen for Antagonists (AID 488983);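 note: calcium flux response to an EC80 dopamine challenge measured with no-wash dye; nearly all actives have a fitted effect of over 65% in size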
# test parameters: D1 receptor cell assay, antagonist mode, qHTS titration; series mostly up to 41.8 µM
Records with an inconclusive call do not appear. Calls of active or inactive are those of the source. Calls follow the shape of the dose curve; as a rule, active = well fitted inhibition curve with a large enough effect; inconclusive = small, poorly fitted or top-dose-only effect, or effect the other way; inactive = flat fitted curve, though single readings scatter.
Classes used: class 1 = active, class 0 = inactive

O=C1NC(=O)c2cc(Nc3ccccc3)c(Nc3ccccc3)cc21 = class 0
Cc1nc(N=Nc2ccc(S(=O)(=O)O)cc2S(=O)(=O)O)c(COP(=O)(O)O)c(C=O)c1O = class 0
CO/N=C(\C(=O)N[C@@H]1C(=O)N2C(C(=O)O)=C(CSc3nc(=O)c(O)nn3C)CSC12)c1csc(N)n1 (stereo partly drawn) = class 0
Cc1cc(Cn2cnc3c2C[C@@H](C(=O)O)N(C(=O)C(c2ccccc2)c2ccccc2)C3)ccc1N = class 0
O=C(O)C1=CCCNC1 = class 0
COc1ccc(C(=O)NCc2cccnc2)cc1C(=O)NCc1cccnc1 = class 0
CCC1(O)CC2CN(CCc3c([nH]c4ccccc34)[C@@](C(=O)OC)(c3cc4c(cc3OC)N(C=O)C3[C@]45CCN4CC=C[C@@](CC)([C@@H](OC(C)=O)[C@]3(O)C(=O)OC)[C@H]45)C2)C1 (stereo partly drawn) = class 0
NCC(O)(CS(=O)(=O)O)c1ccc(Cl)cc1 (stereo not drawn) = class 0
O=C(O)C1CCCNC1 (stereo not drawn) = class 0
CNC(=O)c1cc2c(cn1)[nH]c1ccccc12 = class 0
N=C(N)SCCc1cnc[nH]1 = class 0
CN(C)CCC(c1ccc(Br)cc1)c1ccccn1 (stereo not drawn) = class 0
O=c1oc(Cl)c(Cl)c2ccccc12 = class 0
Nc1nc2c(nc(Br)n2C2OC3COP(=O)(O)O[C@@H]3C2O)c(=O)[nH]1 (stereo partly drawn) = class 0
[N-]=[N+]=Nc1ccc(C(=O)CSC[C@H](NC(=O)CC[C@H](N)C(=O)O)C(=O)NCC(=O)O)cc1 = class 0
Nc1ncnc2c1ncn2C1CCCO1 (stereo not drawn) = class 0
C=CCn1c(=O)c2c(nc(-c3ccc(S(=O)(=O)O)cc3)n2C)n(C)c1=O = class 0
Fc1ccc(CN(C2=NCCN2)c2c(Cl)cccc2Cl)cc1 = class 0
S=C(S)N1CCCC1 = class 0
COc1ccc2c(c1)c(CC(=O)O)c(C)n2Cc1ccc(Cl)cc1 = class 0
NC1(C(=O)O)CC1 = class 0
O=C(O)C1=CCNCC1 = class 0
CN[C@H](CC(=O)O)C(=O)O = class 0
O=C(O)C1=CCCN(CCON=C(c2ccccc2)c2ccccc2)C1 = class 0
O=c1onc2n1-c1cc(Br)ccc1OC2 = class 0
CCCn1c(=O)c2c(ncn2C)n(CCC)c1=O = class 0
CCc1ccc2c(-c3cccc(Cl)c3)nc(=O)n(CC)c2n1 = class 0
O=C(O)CCC(=O)N1CCCC1C(=O)O (stereo not drawn) = class 0
CN1CC(O)C(O)C(O)C1CO (stereo not drawn) = class 0
O=C(O)Cc1ccc(O)c(O)c1 = class 0
CC[N+](CC)(CC)CC(=O)Nc1c(C)cccc1C = class 0
CC(=O)[C@H]1CCC2C3CC=C4C[C@@H](OS(=O)(=O)O)CC[C@]4(C)C3CC[C@@]21C (stereo partly drawn) = class 0
CC1=C(/C=C/C(C)=C/C=C/C(C)=C\C(=O)O)C(C)(C)CCC1 = class 0
O=C(O)/C(=C/c1c(C(=O)O)[nH]c2cc(Cl)cc(Cl)c12)c1ccccc1 = class 0
CCCCC[C@H](CC(=O)NO)C(=O)N[C@H](C(=O)N1CCC[C@H]1CO)C(C)C = class 0
COc1ccccc1N1CCN(CCCCNC(=O)c2ccc3ccccc3c2)CC1 = class 1
N#Cc1cc2nc(O)c(O)nc2cc1[N+](=O)[O-] = class 0
Nc1ncnc2c1nc(Sc1ccc(Cl)cc1)n2[C@H]1OC2COP(=O)(O)O[C@@H]2C1O (stereo partly drawn) = class 0
CCCCS(=N)(=O)CC[C@H](N)C(=O)O (stereo partly drawn) = class 0
CC(/C=C/c1cccc(Oc2ccc(F)cc2)c1)N(O)C(N)=O (stereo not drawn) = class 0
CC(N)=NCCCC[C@@H](N)C(=O)O = class 0
C=CC[C@H](N)C(=O)O = class 0
Clc1nccc2c1ccc1ccccc12 = class 0
COc1cc([C@@H]2c3cc4c(cc3[C@H](O)C3COC(=O)[C@@H]32)OCO4)cc(OC)c1OC (stereo partly drawn) = class 0
CC(C)[C@@H]1CC[C@@H](C)C[C@@H]1P(=O)(c1ccccc1)c1ccccc1 = class 0
CN1C2CCC1CC(OC(c1ccccc1)c1ccccc1)C2 (stereo not drawn) = class 0
N=C(N)c1ccc(OCCCCCOc2ccc(C(=N)N)cc2)cc1 (tested in a mixture with another compound) = class 0
NC(=O)CNCCC(c1ccccc1)c1ccccc1 = class 0
